Target: α-amylase prepared from human saliva (Homo sapiens, UniProt P0DUB6)
Construct: α-amylase prepared from human saliva; purchased Sigma Co; host or cells: human saliva
Sequence (P0DUB6 16-511): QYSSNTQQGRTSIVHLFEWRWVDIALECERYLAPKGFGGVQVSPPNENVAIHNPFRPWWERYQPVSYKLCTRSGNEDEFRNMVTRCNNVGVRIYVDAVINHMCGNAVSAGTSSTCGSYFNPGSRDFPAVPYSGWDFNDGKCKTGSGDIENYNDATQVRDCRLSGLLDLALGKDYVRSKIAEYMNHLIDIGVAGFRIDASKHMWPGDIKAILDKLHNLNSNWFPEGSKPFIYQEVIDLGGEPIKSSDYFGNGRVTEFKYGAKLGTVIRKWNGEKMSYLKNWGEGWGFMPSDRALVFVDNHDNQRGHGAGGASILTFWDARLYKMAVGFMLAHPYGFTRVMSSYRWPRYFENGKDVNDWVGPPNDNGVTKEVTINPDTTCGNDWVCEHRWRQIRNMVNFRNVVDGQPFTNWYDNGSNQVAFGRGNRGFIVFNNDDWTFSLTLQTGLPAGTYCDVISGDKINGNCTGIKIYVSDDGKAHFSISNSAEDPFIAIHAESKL
Experiment notes: Inhibition of the activity of α-amylase (reducing sugar from soluble starch, Bernfeld method)
Type: biochemical
pIC50: −log10 of the molar value.
Readout type: pIC50

Give reported pIC50 value for O=C(O)c1cc(O)c(O)c(O)c1 [Gallic acid, reference compound]
< 3.00

====

Experiment notes: Acute toxicity in mice (LD50)
Protocol conditions: mouse, in vivo, ip; intraperitoneal administration, ICR mice, Van der Waerden method; read-out: LD₅₀
Readout type: LD50 (mg/kg)
Numbers only, in mg/kg.

Give reported LD50 value for O=C(O[C@@H]1Cc2c(O)cc(O)cc2O[C@@H]1c1cc(O)c(O)c(O)c1)c1cc(O)c(O)c(O)c1 [Epigallocatechin gallate, (-)epigallocatechin gallate]
150

====

Target: α-amylase prepared from human saliva (Homo sapiens, UniProt P0DUB6)
Construct: α-amylase prepared from human saliva; purchased Sigma Co; host or cells: human saliva
Experiment notes: Inhibition of the activity of α-amylase (reducing sugar from soluble starch, Bernfeld method)
Type: biochemical
Protocol conditions: human saliva α-amylase, 10 min preincubation at 37°C, soluble starch 2.0 mg/ml; read-out: Concentration for 50% inhibition
Mark met only when IC50 stays strictly below 20 µM. Values equal to the cut-off are not met.

O=C(O[C@@H]1Cc2c(O)cc(O)cc2O[C@@H]1c1ccc(O)c(O)c1)c1cc(O)c(O)c(O)c1 [Epicatechin gallate, (-)epicatechin gallate] :: not met

Does the reported IC50 of O=C(O[C@@H]1Cc2c(O)cc(O)cc2O[C@@H]1c1cc(O)c(O)c(O)c1)c1cc(O)c(O)c(O)c1 [Epigallocatechin gallate, (-)epigallocatechin gallate] stay below 20 µM?
not met

Would you kindly verify if IC50 of O=c1c(O)cc([C@H]2Oc3cc(O)cc(O)c3C[C@H]2O)cc2c([C@H]3Oc4cc(O)cc(O)c4C[C@H]3O)cc(O)c(O)c12 [Free theaflavin, free theaflavin] is strictly less than 20 µM?
met

Does this compound meet the criterion IC50 < 20 µM? O=C(O[C@@H]1Cc2c(O)cc(O)cc2O[C@@H]1c1cc(O)c(=O)c2c(O)c(O)cc([C@H]3Oc4cc(O)cc(O)c4C[C@H]3O)c2c1)c1cc(O)c(O)c(O)c1 [Theaflavin monogallate A, theaflavin monogallate A]
met

Please indicate whether the reported IC50 of Oc1cc(O)c2c(c1)O[C@H](c1cc(O)c(O)c(O)c1)[C@H](O)C2 [Epicagallcatechin, (-)epigallocatechin] is strictly below 20 µM.
not met

Does this compound meet the criterion IC50 < 20 µM? O=C(O[C@@H]1Cc2c(O)cc(O)cc2O[C@@H]1c1cc(O)c(O)c2c(=O)c(O)cc([C@H]3Oc4cc(O)cc(O)c4C[C@H]3O)cc12)c1cc(O)c(O)c(O)c1 [Theaflavin monogallate B, theaflavin monogallate B]
met

Criterion: IC50 strictly below 20 µM. Is it met by Oc1cc(O)c2c(c1)O[C@H](c1ccc(O)c(O)c1)[C@H](O)C2 [Epicatechin, (-)epicatechin] ?
not met
